Exercise: for every item that follows, state its recorded pIC50.
TARGET_OR_TEST_SYSTEM: PARP2 (Homo sapiens (Human))
Sequence (Q9UGN5 whole entry): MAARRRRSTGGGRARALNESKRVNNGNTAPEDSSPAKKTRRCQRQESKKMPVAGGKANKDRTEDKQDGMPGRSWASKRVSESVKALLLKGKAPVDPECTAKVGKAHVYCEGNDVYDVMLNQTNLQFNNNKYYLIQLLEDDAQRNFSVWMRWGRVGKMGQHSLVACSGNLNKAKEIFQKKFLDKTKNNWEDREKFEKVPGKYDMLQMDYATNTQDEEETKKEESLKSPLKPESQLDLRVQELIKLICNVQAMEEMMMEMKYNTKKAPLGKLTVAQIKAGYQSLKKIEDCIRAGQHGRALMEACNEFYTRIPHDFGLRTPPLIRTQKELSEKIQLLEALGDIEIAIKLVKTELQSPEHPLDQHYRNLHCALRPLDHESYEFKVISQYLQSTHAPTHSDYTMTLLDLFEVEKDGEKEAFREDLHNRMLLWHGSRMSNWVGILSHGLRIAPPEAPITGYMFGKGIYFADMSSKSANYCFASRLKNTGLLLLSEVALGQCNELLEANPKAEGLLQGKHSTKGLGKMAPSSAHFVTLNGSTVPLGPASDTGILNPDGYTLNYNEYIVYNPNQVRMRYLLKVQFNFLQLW
One number for each entry, as −log10 of the molar value.

Solved cases (5 shown):
| SAMPLE_SMILES | pIC50 |
| --- | --- |
| O=C(CCSc1nc2ccccc2c(=O)[nH]1)N[C@H]1CC[C@H](Oc2ccncc2)CC1 | 5.49 |
| O=C(CCc1nc2ccccc2c(=O)[nH]1)N1CCC(c2nnc(-c3ccccc3)o2)CC1 | 6.09 |
| O=C(CCCc1nc2ccccc2c(=O)[nH]1)N1CCN(c2n[nH]c3ccccc23)CC1 | 6.55 |
| O=C(CCCc1nc2ccccc2c(=O)[nH]1)N[C@H]1CC[C@H](c2nnc(-c3cccc(F)c3)o2)CC1 | 5.94 |
| O=C(CCCc1nc2ccccc2c(=O)[nH]1)N1CCC(c2nnc(COc3ccc(Cl)cc3)o2)CC1 | 6.04 |

# batch: return pIC50 for each of the 6 molecules below
1. O=C(CCc1nc2ccccc2c(=O)[nH]1)N[C@H]1CC[C@H](c2nnc(-c3cccc(F)c3)o2)CC1
2. O=C(CCc1nc2ccccc2c(=O)[nH]1)N[C@H]1CC[C@H](c2nnc(-c3cnccn3)o2)CC1
3. O=C(CCCc1nc2ccccc2c(=O)[nH]1)N1CCN(c2nsc3ccccc23)CC1
4. O=C(CCCc1nc2ccccc2c(=O)[nH]1)N1CCC(n2c(=O)oc3cc(F)ccc32)CC1
5. O=C(CCCc1nc2ccccc2c(=O)[nH]1)N1CCC(c2nnc(-c3cccc(Cl)c3)o2)CC1
6. N#Cc1ccc2c(c1)[nH]c(=O)n2[C@H]1CC[C@H](NC(=O)CSc2nc3ccccc3c(=O)[nH]2)CC1

[out]
1: 5.71; 2: 5.77; 3: 6.50; 4: 6.00; 5: 6.38; 6: 5.64
